The origin of these recorded values is PubChem BioAssay.

Assay: reversal of MRP1-mediated doxorubicin resistance, pilot screen, H69AR cells, doxorubicin co-treatment (AID 601)
Details: H69AR cells, CellTiter-Glo, 72 h; compound alone cytotoxicity; at 10 µM
Hi! Just check whether viability is below 90%. Below gives met, equal or above gives not met.

- Compound: "CCOC(=O)c1ccc2nc(NC(NC(C)=O)(C(=O)OC)C(F)(F)F)sc2c1 (stereo not given)"
  Assigned category: "not met"
- Compound: "C=C(C)CSc1nnc(-c2cccc(S(=O)(=O)N(C)C)c2)n1-c1cc(OC)ccc1OC"
  Assigned category: "not met"
- Compound: "Cc1cc(NC(=O)CCC(=O)N(CC(=O)NC2CCCC2)Cc2ccc(F)cc2)no1"
  Assigned category: "not met"
- Compound: "Cc1cccc(N2CCN(Cc3c(C)n(C)n(-c4ccccc4)c3=O)CC2)c1C"
  Assigned category: "met"
- Compound: "CCOCC(=O)Nc1ccc(S(=O)(=O)N2CCOCC2)cc1"
  Assigned category: "met"

Is viability strictly under 90% for the entry COC(=O)C1=C(C)NC(=O)C1(NC(=O)c1cccnc1)C(F)(F)F (stereo not given) ?
not met

Is viability strictly under 90% for the entry Cc1cc(Br)ccc1NC(=O)CCN1C(=O)c2ccncc2C1=O ?
not met

Is viability strictly under 90% for the entry CCOC(=O)c1ccc(-c2c(C(=O)OCC)oc3cc(O)c(CC)cc3c2=O)o1 ?
met

Is viability strictly under 90% for the entry Cn1nc(C(=O)NC2CCCCCC2)ccc1=O ?
not met

Is viability strictly under 90% for the entry Cc1cc(NC(=O)c2ccc3c(c2)C(=O)N(Cc2cccnc2)C3=O)no1 ?
not met

Is viability strictly under 90% for the entry CCc1nnc(NC(=O)c2ccc(COc3ccccc3)o2)s1 ?
not met

Is viability strictly under 90% for the entry COc1ccc(NC(=O)Nc2ccc(C)cc2OC(F)F)cc1OC ?
not met

Is viability strictly under 90% for the entry COc1ccccc1C(=O)Nc1ccc(N2CCN(S(C)(=O)=O)CC2)cc1 ?
not met

Is viability strictly under 90% for the entry O=C(CN1C(=O)CC(c2ccco2)Sc2ccccc21)Nc1ccccc1F (stereo not given) ?
met

Is viability strictly under 90% for the entry COc1ccc(CCNC(=O)c2ccncc2)cc1OC ?
not met

Is viability strictly under 90% for the entry COc1ccccc1OCC(=O)N1CCNC1=O ?
not met

Is viability strictly under 90% for the entry CCN(C#N)c1nc(NC(C)C)nc(NC(C)C)n1 ?
not met

Is viability strictly under 90% for the entry Cc1nc2ccc(S(=O)(=O)NCC(=O)O)cc2s1 ?
not met

Is viability strictly under 90% for the entry Fc1ccccc1-c1nc(NCCCN2CCOCC2)c2ccccc2n1 ?
met

Is viability strictly under 90% for the entry Cn1cc(C(=O)c2ccc(F)cc2)cc1-c1nc2ccccc2n1C ?
not met

Is viability strictly under 90% for the entry COc1ccccc1Cn1nnc2c(=O)[nH]c(C3CCN(C(=O)c4ccccc4Cl)CC3)nc21 ?
met

Is viability strictly under 90% for the entry O=C(CSc1ncnc2sc3c(c12)CCCCC3)NCc1ccco1 ?
met

Is viability strictly under 90% for the entry COc1ccccc1OCCCCNCCO ?
not met

* * *

Test: reversal of MRP1-mediated doxorubicin resistance, pilot screen, H69AR cells, doxorubicin co-treatment (AID 601)
Settings: H69AR cells, CellTiter-Glo, 72 h; compound alone cytotoxicity; at 10 µM
Endpoint: viability (%)
Answers are plain numbers, in %.

- Molecule: "C#CCSc1nnc(-c2ccccc2)c(=O)[nH]1"
  Unit label: "%"
  Measurement: 94.7
- Molecule: "CCNC(=O)c1ccc(NS(=O)(=O)c2ccccc2)cc1"
  Unit label: "%"
  Measurement: 90.5
- Molecule: "COc1ccc(-c2cc(C(F)F)n3ncc(C(=O)NCC4CCCO4)c3n2)cc1 (centres undefined)"
  Unit label: "%"
  Measurement: 73.6

Please report viability for every entry that follows.
1. CCCCc1cc(=O)oc2cc(C)cc(OC(C)C(=O)O)c12 (centres undefined)
2. COC(=O)c1[nH]c2cccc(C)c2c1NC(=O)CN1CCCc2ccccc21
3. N#CCCn1ccc(NC(=O)c2ccc(Cl)cc2)n1
4. CCCOc1ccc(-c2nnn(CC(=O)Nc3cccc(C(=O)OC)c3)n2)cc1
5. COc1ccc(C(=O)OCC(=O)NCc2ccco2)cc1OC
6. COC(=O)c1cc(NC(=O)C2CC=CCC2C(=O)O)cc(C(=O)OC)c1 (centres undefined)

104
78.8
97
48
78.4
109
